Origin of values: patent US7390834B2

# melting point per record follows

N#Cc1ccc(OCCCCCCCC(=O)O)cc1
137 to 140 °C
N#Cc1ccccc1OCCCC(=O)O
127 to 128 °C
N#Cc1cc(Cl)ccc1OCCCCC(=O)O
87 to 90 °C
N#Cc1ccccc1OCCCCCC(=O)O (hydrate or solvate)
77 to 80 °C

[Q] # get_value(readout='melting point', item= N#Cc1ccccc1OCCCCC(=O)O )
[A] 87 to 89 °C

[Q] How about N#Cc1ccccc1OCCCCCCCC(=O)O ?
[A] 83 to 85 °C

[Q] How about N#Cc1ccccc1OCc1ccc(C(=O)O)cc1 ?
[A] 199 to 203 °C

[Q] How about N#Cc1ccccc1OCCCCCCCCCC(=O)O ?
[A] 82 to 84 °C
